target-or-system: human CXCR3 (N-delta 4) (Homo sapiens, UniProt P49682)
Construct: CD8 leader (N); Flag tag (N); expressed in transfected cells; host or cells: mouse pro-B Ba/F3 cells, stably transfected with pME18Sneo-hCXCR3 (N-delta 4); membrane preparation
Sequence (P49682 5-368 limits assumed): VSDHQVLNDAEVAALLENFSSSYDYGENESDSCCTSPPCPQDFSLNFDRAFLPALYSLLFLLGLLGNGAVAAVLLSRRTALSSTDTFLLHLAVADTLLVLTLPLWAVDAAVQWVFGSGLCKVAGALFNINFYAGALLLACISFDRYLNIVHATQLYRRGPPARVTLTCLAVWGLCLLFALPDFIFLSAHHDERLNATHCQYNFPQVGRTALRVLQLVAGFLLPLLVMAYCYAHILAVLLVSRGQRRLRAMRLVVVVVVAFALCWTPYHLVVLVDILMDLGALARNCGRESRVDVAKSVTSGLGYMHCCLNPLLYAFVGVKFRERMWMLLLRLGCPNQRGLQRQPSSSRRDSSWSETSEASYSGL
experiment-summary: Human CXCR3 (N-delta 4) Scintillation Proximity Assay (SPA), [125I] IP-10 binding
condition-info: IC50 rating; Ba/F3-hCXCR3 (N-delta 4) membranes, 25 pM [125I] IP-10; read-out: IC50
pIC50: −log10 of the molar value.
quantity: pIC50

{"compound": "CC[C@H]1CN(c2ncc(-c3ncc[nH]3)nc2C)CCN1C1CCN(C(=O)c2ccc(Cl)cc2)CC1 [Compound 111]", "pIC50": "> 7.60"}
{"compound": "CC[C@H]1CN(c2nc(N)c(-c3n[nH]c(=O)o3)nc2Cl)CCN1C1CCN(Cc2ccc(Cl)cc2)CC1 [Compound 87]", "pIC50": "< 7.00"}
{"compound": "CC[C@H]1CN(c2nc(N)c(-c3nnc(C(=O)NCC(F)(F)F)o3)nc2Cl)CCN1C1CCN(C(=O)c2ccc(Cl)cc2)CC1 [Compound 77]", "pIC50": "7.00 to 7.60"}
{"compound": "CCNc1nnc(-c2cnc(N3C[C@H](CC)N(C4CCN(C(CO)c5ccc(F)c(F)c5)CC4)C[C@H]3C)c(C)n2)o1 (stereo partly shown) [Compound 175]", "pIC50": "> 7.60"}
{"compound": "CCNc1nnc(-c2cnc(N3CCN(C4CCN(C(=O)c5ccc(F)c(F)c5)CC4)[C@@H](CC)C3)c(C)n2)o1 [Compound 144]", "pIC50": "> 7.60"}
{"compound": "CC[C@H]1CN(c2ncc(-c3nnc[nH]3)nc2C)[C@H](C)CN1C1CCN(C(=O)c2ccc(Cl)cc2)CC1 [Compound 118]", "pIC50": "7.00 to 7.60"}
{"compound": "CC[C@H]1CN(c2ncc(-c3nnc(N(CC)S(=O)(=O)c4ccc(C)cc4)o3)nc2C)C(C)CN1C1CCN(C(=O)c2ccc(Cl)cc2)CC1 (stereo partly shown) [Compound 196]", "pIC50": "7.00 to 7.60"}
{"compound": "CCNc1nnc(-c2cnc(N3C[C@H](CC)N(C4CCN(C(=O)c5ccc(C(F)(F)F)nc5N)CC4)C[C@H]3C)c(C)n2)o1 [Compound 189]", "pIC50": "> 7.60"}

For CCNc1nnc(-c2cnc(N3C[C@H](CC)N(C4CCN(C(=O)c5ccc(Cl)cc5)CC4)C[C@H]3C)c(C(F)(F)F)n2)o1 [Compound 191] the compound record lists pIC50 as > 7.60

For CC[C@H]1CN(c2ncc(-c3nc[nH]n3)nc2C)CCN1C1CCN(C(=O)c2ccc(Cl)cc2)CC1 [Compound 49] the compound record lists pIC50 as > 7.60

The measured values listed here are drawn from patent US7868006B2.
